target: human mutant B-raf (HuBraf V600E) (Homo sapiens (Human), UniProt P15056, V600E); details: at 10 μM compound concentration; POC = 100 − percent inhibition
Sequence (P15056 whole entry V600E): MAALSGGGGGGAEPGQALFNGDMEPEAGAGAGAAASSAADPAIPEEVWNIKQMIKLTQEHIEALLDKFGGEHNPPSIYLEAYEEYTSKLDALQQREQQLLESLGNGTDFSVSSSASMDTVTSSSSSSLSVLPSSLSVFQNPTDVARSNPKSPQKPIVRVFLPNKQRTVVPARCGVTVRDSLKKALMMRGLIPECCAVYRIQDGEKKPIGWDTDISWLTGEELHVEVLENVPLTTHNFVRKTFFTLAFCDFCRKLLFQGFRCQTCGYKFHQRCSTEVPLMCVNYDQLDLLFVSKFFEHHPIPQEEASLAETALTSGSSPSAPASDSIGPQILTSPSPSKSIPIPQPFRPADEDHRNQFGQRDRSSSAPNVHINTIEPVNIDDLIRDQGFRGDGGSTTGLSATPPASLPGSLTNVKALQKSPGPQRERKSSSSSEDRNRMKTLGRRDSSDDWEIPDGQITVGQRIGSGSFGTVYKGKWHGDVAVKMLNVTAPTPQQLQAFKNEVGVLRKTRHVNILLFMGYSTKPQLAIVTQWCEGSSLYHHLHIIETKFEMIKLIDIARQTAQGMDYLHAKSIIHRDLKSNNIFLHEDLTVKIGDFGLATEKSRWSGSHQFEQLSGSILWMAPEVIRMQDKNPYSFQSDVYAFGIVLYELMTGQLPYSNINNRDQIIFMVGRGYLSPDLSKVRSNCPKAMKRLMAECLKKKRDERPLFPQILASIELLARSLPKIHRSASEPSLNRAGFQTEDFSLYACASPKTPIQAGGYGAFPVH

{"columns": ["smiles.entry", "Mutant B-raf HTRF Assay POC Mean n = 2"],
 "data": [
  ["COc1ccc(Nc2ncc(C)cc2-c2nc(C)nc(N)n2)cn1", "97% of Control (POC)"],
  ["Cc1nc(N)nc(-c2cccnc2Nc2cccc3[nH]ccc23)n1", "118% of Control (POC)"],
  ["C=Cc1cnc(Nc2ccc(OC)nc2)c(-c2nc(C)nc3[nH]cnc23)c1", "108% of Control (POC)"],
  ["c1cnc(Nc2cccc3[nH]ccc23)c(-c2ncnc3[nH]cnc23)c1", "7% of Control (POC)"],
  ["COc1ncc(Nc2ncccc2-c2nc(C)nc3[nH]cnc23)cn1", "103% of Control (POC)"],
  ["Cc1cnc(Nc2cccc3[nH]ncc23)c(-c2nc(C)nc(N)n2)c1", "91% of Control (POC)"],
  ["Cc1nc(-c2cccnc2Nc2cccc3[nH]ncc23)c2cn[nH]c2n1", "103% of Control (POC)"],
  ["COc1ccc(Nc2ncc(CN3CCN(S(C)(=O)=O)CC3)cc2-c2nc(C)nc3[nH]cnc23)cn1", "90% of Control (POC)"],
  ["Cc1nc(-c2cc(C(F)(F)F)cnc2Nc2cccc3[nH]ncc23)c2nc[nH]c2n1", "85% of Control (POC)"]
]}

* * *

target: PI3Kα (Homo sapiens (Human), UniProt P42336); conditions: read-out: PI3Kα AlphaScreen ® Ki
Sequence (P42336 whole entry): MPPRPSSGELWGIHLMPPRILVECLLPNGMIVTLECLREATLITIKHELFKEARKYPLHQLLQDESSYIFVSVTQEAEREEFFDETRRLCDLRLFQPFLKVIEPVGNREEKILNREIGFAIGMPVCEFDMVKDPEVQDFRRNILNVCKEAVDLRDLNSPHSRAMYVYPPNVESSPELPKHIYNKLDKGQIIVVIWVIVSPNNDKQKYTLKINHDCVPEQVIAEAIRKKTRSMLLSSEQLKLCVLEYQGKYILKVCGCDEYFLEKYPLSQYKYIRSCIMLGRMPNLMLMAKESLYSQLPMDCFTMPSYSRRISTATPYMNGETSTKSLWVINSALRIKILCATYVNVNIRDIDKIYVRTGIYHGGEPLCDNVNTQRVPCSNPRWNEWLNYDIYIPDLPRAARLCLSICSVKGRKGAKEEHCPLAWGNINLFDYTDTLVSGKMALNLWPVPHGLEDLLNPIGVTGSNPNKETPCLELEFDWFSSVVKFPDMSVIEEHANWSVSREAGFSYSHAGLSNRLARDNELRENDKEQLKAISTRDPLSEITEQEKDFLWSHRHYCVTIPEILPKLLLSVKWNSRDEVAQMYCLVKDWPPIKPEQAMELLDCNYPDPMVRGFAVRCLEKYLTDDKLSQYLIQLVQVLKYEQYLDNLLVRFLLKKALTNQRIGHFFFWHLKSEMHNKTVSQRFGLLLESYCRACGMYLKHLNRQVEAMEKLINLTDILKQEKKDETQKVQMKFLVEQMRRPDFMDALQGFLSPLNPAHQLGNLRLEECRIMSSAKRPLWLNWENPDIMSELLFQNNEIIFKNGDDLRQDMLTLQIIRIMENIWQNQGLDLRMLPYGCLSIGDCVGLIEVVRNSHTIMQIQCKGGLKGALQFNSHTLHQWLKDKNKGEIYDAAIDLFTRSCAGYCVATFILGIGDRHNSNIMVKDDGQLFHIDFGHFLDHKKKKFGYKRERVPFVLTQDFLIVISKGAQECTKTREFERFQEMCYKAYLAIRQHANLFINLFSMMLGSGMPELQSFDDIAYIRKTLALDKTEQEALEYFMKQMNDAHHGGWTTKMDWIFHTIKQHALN
Sequence (P27986 whole entry partner): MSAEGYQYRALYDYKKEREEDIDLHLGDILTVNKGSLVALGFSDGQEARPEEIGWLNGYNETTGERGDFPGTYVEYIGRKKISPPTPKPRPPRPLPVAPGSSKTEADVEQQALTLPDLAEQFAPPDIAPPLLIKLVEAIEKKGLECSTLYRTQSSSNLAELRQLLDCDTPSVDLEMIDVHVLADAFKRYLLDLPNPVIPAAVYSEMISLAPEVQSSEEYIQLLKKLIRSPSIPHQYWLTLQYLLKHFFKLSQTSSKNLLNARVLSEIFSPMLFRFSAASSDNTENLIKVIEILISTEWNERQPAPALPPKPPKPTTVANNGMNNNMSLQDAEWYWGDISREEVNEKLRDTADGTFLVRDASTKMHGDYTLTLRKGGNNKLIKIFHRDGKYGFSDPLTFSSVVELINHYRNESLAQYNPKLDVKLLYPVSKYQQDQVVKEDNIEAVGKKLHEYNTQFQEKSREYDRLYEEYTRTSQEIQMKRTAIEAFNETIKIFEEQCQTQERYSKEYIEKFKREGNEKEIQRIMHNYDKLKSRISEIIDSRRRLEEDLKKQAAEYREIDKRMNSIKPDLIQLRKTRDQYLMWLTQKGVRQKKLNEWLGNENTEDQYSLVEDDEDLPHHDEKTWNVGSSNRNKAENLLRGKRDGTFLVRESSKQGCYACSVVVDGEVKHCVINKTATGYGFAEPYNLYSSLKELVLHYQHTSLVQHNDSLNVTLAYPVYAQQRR
pKi: −log10 of the molar value.
Each entry belongs to exactly one class, chosen by where its pKi falls: low bracket (below 7), middle bracket (7 to below 8), high bracket (8 or more)

{"columns": ["molecule", "label.value"],
 "data": [
  ["Cc1nc(-c2cc(CO)cnc2Nc2cccc3[nH]ncc23)c2nc[nH]c2n1 [Example 72]", "middle bracket"],
  ["COc1ccc(Nc2ncc(CNc3ccccc3)cc2-c2nc(C)nc3[nH]cnc23)cn1 [Example 83]", "middle bracket"],
  ["COc1ccc(Nc2ncc(CNc3cccnn3)cc2-c2nc(C)nc3[nH]cnc23)cn1 [Example 80]", "middle bracket"],
  ["COc1ccc(Nc2ncc(CNCc3cccnc3)cc2-c2nc(C)nc3[nH]cnc23)cn1 [Example 138]", "middle bracket"],
  ["Cc1ccc(-c2nc(C)nc(N)n2)c(Nc2cncc(F)c2)n1 [Example 200]", "low bracket"],
  ["COc1ncc(Nc2ncc(CN3CCN(S(C)(=O)=O)[C@H](C)C3)cc2-c2nc(C)nc(N)n2)cc1F [Example 364]", "high bracket"],
  ["COc1ccc(Nc2ncc(C(O)c3ccc(S(=O)(=O)N(C)C)cc3)cc2-c2nc(C)nc(N)n2)cn1 (centres unmarked) [Example 236]", "high bracket"],
  ["COc1ncc(Nc2ncccc2-c2nc(C)nc(N)n2)cc1Cl [Example 173]", "middle bracket"],
  ["Cc1nc(-c2cc(Cl)cnc2Nc2cccc3[nH]ncc23)c2nc[nH]c2n1 [Example 61]", "low bracket"],
  ["Cc1nc(N)nc(-c2cc(CN3CCOCC3)cnc2Nc2cnc(Cl)c(NS(C)(=O)=O)c2)n1 [Example 332]", "high bracket"],
  ["COc1ccc(Nc2ncc(C(N3CCN(S(C)(=O)=O)CC3)C(F)(F)F)cc2-c2nc(C)nc(N)n2)cn1 (centres unmarked) [Example 321]", "middle bracket"],
  ["Cc1nc(N)nc(-c2cccnc2Nc2ccc(F)c(F)c2)n1 [Example 248]", "low bracket"]
]}

meta.source: patent US8772480B2
